Protocol Notes: Antiproliferative activity against human KB/HeLa cells after 48 hrs
Type: functional, cell-based
pEC50: −log10 of the molar value.
Quick reference for pEC50 among some molecules
Measured Parameter: pEC50

{"columns": ["Compound Structure String", "Reported"],
 "data": [
  ["CN(C)CCn1nc2c3c(c(NCCCCCCOS(C)(=O)=O)ccc31)C(=O)c1ccncc1-2", 5.78],
  ["CN(C)CCn1nc2c3c(c(NCCC#CCCO)ccc31)C(=O)c1ccncc1-2", 5.86],
  ["O=C1c2c(O)ccc(O)c2C(=O)c2c(NCCNCCO)ccc(NCCNCCO)c21", 6.44],
  ["CN(C)CCSCCNc1ccc2c3c(nn2CCN(C)C)-c2cnccc2C(=O)c13", 6.12],
  ["CN(C)CCn1nc2c3c(c(NCCCCc4ccc(N(CCCl)CCCl)cc4)ccc31)C(=O)c1ccncc1-2", 5.61],
  ["CN(C)CCn1nc2c3c(c(NCCN4CC4)ccc31)C(=O)c1ccncc1-2", 7.15],
  ["CN(C)CCn1nc2c3c(c(NCCCCN4CC4)ccc31)C(=O)c1ccncc1-2", 7.10],
  ["CN(C)CCn1nc2c3c(c(NCCSCCO)ccc31)C(=O)c1ccncc1-2", 6.02]
]}

----------
Protocol Notes: Antiproliferative activity against human KB/HeLa cells after 48 hrs
Format: functional, cell-based
Measured Parameter: EC50 (nM)

{"columns": ["Compound Structure String", "Reported"],
 "data": [
  ["CN(C)CCn1nc2c3c(c(NCC/C=C\\CCOS(C)(=O)=O)ccc31)C(=O)c1ccncc1-2", 750],
  ["CN(C)CCn1nc2c3c(c(NCC/C=C\\CCN4CC4)ccc31)C(=O)c1ccncc1-2", 430],
  ["CN(C)CCn1nc2c3c(c(NCCCCOS(C)(=O)=O)ccc31)C(=O)c1ccncc1-2", 3170],
  ["CN(C)CCn1nc2c3c(c(N(C)C)ccc31)C(=O)c1ccncc1-2", 2190],
  ["CN(C)CCn1nc2c3c(c(NCCCCCCN4CC4)ccc31)C(=O)c1ccncc1-2", 340],
  ["CN(C)CCn1nc2c3c(c(NCCC#CCCOS(C)(=O)=O)ccc31)C(=O)c1ccncc1-2", 390],
  ["CN(C)CCn1nc2c3c(c(NCC/C=C/CCN4CC4)ccc31)C(=O)c1ccncc1-2", 1220],
  ["CN(C)CCn1nc2c3c(c(NCCC#CCCN4CC4)ccc31)C(=O)c1ccncc1-2", 140],
  ["CN(C)CCn1nc2c3c(c(NCCOS(C)(=O)=O)ccc31)C(=O)c1ccncc1-2", 150]
]}

----------
Tested on: SK-OV-3
Protocol Notes: Antiproliferative activity against human SKOV3 cells after 48 hrs
Assay type: functional, cell-based
Conditions Used: SK-OV-3, 48 h
Measured Parameter: EC50 (µM)

{"columns": ["Compound Structure String", "System", "Reported"],
 "data": [
  ["CN(C)CCn1nc2c3c(c(NCCC#CCCN4CC4)ccc31)C(=O)c1ccncc1-2", "SK-OV-3", 0.31],
  ["CN(C)CCn1nc2c3c(c(NCCCCCCOS(C)(=O)=O)ccc31)C(=O)c1ccncc1-2", "SK-OV-3", 3.61],
  ["CN(C)CCn1nc2c3c(c(NCCSCCO)ccc31)C(=O)c1ccncc1-2", "SK-OV-3", 0.4]
]}
